target: BRAF V600E (Homo sapiens (Human), UniProt P15056, V600E); experiment: Z′-LYTE kinase inhibition assay (Invitrogen), BRAF V600E; assay type: biochemical; settings: 1 μM compound, Z′-LYTE method; read-out: % inhibition at 1 μM against BRAF V600E
Sequence (P15056 whole entry V600E): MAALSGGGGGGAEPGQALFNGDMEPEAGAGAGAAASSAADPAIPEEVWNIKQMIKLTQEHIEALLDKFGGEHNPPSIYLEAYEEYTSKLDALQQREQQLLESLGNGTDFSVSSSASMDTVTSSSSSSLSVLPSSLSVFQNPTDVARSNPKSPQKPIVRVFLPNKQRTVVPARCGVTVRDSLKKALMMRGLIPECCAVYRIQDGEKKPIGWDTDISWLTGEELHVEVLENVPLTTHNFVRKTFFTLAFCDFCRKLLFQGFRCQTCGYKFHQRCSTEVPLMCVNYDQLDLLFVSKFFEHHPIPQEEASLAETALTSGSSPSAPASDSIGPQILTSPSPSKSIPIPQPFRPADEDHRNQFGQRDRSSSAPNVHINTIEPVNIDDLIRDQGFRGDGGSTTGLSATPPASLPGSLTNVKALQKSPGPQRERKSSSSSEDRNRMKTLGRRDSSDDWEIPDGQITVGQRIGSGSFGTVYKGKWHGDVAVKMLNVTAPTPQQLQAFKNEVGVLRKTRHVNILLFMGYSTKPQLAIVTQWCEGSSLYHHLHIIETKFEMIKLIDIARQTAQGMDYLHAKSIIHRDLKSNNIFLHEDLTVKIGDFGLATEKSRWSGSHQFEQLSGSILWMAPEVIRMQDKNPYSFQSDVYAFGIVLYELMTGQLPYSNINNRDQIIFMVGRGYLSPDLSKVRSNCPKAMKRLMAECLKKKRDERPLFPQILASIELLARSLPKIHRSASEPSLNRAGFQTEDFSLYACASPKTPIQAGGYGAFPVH
Readings of inhibition at 1 µM for the listed molecules

>>> print(df.to_string())
                                   molecule  reported_result
0  COc1cnc2ccc(C(=O)c3cc(NC(=O)Nc4ccc(F)c(F)c4)ccc3F)cc2n1 [Compound C082]            > 89%

// lookup inhibition at 1 µM for O=C(Nc1ccc(F)c(C(=O)c2ccc3nccnc3c2)c1Cl)c1ccc(Cl)c(C(F)(F)F)c1 [Compound C112]
< 70%

Query O=C(Nc1ccnc(C(F)(F)F)c1)Nc1ccc(F)c(C(=O)c2ccc3ncc(N4CCOCC4)nc3c2)c1 [Compound C090] next
> 89%

Here is the next molecule: O=C(Nc1ccc(C(F)(F)F)cc1)Nc1ccc(F)c(C(=O)c2ccc3nccnc3c2)c1 [Compound C075]
> 89%

###

Entries annotated with measured pIC50
system: A375 cells; assay: Inhibition of cancer cell growth, MTT assay, A375; assay type: cell-based; conditions: Homo sapiens, A-375, 72 h exposure
pIC50: −log10 of the molar value.

Past entries and their recorded results:
In [3]: df
Out[3]:
                                   compound  system_tested  reported_result
0  O=C(c1cccc(NC(=O)c2cc(C(F)(F)F)ccc2Cl)c1)c1ccc2nccnc2c1 [Compound C106]     A375 cells           > 6.00
1  O=C(Nc1cc(F)cc(C(=O)c2ccc3ncc(N4CCOCC4)nc3c2)c1)Nc1cccc(C(F)(F)F)c1 [Compound C038]     A375 cells           > 6.00
2  O=C(Nc1ccc(F)c(F)c1)Nc1ccc(F)c(C(=O)c2ccc3ncc(NCCO)nc3c2)c1 [Compound C087]     A375 cells           > 6.00

Shifting focus to the compound that follows.
Notebook: pull reported pIC50 for A375 cells, entry O=C(Nc1ccc(C(F)(F)F)cc1)Nc1cc(F)cc(C(=O)c2ccc3nccnc3c2)c1 [Compound C066]
5.30 to 6.00

###

biological target: KDR (VEGFR2) (Homo sapiens (Human))
pIC50: −log10 of the molar value.
Endpoint label: pIC50

Known results for compounds:
>>> print(df.to_string())
                                   compound                        system_tested  reported_result
0  O=C(Nc1cccc(C(=O)c2ccc3nccnc3c2)c1)Nc1cccc(C(F)(F)F)c1 [Compound C009]  KDR (VEGFR2) (Homo sapiens (Human))           > 7.00
1  O=C(Nc1cc(F)c(F)c(C(=O)c2ccc3ncc(N4CCOCC4)nc3c2)c1)c1ccc(Cl)c(C(F)(F)F)c1 [Compound C146]  KDR (VEGFR2) (Homo sapiens (Human))           > 7.00
2  O=C(Nc1cccc(F)c1)Nc1ccc(F)c(C(=O)c2ccc3ncc(N4CCOCC4)nc3c2)c1 [Compound C035]  KDR (VEGFR2) (Homo sapiens (Human))           > 7.00

We now examine a further compound.
Quick one: pIC50 of O=C(Nc1cccc(C(=O)c2ccc3ncc(-c4cn[nH]c4)nc3c2)c1)Nc1ccc(Cl)c(C(F)(F)F)c1 [Compound C029] ?
> 7.00

###

target: KDR (VEGFR2) (Homo sapiens (Human), UniProt P35968); test: Z′-LYTE kinase inhibition assay (Invitrogen), KDR; format: biochemical; settings: 1 μM compound, Z′-LYTE method; read-out: % inhibition at 1 μM against KDR
Sequence (P35968 20-1356): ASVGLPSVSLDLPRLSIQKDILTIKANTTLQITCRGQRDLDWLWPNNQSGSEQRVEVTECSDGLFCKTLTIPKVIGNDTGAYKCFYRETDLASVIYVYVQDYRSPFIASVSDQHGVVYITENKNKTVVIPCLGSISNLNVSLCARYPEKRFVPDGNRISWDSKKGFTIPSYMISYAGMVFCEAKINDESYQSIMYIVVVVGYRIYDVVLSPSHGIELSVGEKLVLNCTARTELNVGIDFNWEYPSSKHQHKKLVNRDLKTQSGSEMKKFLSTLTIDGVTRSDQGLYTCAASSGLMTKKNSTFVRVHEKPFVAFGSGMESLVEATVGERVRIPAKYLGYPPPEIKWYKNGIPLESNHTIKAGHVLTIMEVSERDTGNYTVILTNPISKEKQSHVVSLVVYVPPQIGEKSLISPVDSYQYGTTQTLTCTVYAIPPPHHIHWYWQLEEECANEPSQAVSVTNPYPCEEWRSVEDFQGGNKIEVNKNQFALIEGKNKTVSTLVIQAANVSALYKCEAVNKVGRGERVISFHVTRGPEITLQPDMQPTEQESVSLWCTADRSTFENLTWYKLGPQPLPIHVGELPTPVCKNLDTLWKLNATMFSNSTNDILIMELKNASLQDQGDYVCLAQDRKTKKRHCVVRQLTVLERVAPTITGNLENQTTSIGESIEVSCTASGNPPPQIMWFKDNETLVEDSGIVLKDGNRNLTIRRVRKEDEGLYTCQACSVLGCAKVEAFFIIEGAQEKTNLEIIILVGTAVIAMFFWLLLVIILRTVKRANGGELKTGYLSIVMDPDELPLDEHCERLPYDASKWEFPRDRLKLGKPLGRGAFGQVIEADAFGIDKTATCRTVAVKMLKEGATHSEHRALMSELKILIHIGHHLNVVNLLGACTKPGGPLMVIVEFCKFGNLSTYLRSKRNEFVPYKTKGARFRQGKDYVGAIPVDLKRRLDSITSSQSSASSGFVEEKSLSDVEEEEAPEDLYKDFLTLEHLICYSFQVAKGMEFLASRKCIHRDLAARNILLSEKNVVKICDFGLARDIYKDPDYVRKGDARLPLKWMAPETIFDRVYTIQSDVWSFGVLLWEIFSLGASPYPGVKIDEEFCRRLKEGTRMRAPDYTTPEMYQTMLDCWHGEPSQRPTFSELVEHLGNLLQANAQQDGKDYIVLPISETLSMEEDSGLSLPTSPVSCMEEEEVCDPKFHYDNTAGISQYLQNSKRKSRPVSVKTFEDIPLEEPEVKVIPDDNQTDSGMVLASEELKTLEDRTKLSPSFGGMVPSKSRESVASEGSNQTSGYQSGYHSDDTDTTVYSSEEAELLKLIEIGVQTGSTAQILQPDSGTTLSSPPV
# reported inhibition at 1 µM; entries follow

>>> print(df.to_string())
                           substance_smiles                             system_tested  reported_result
0  O=C(Nc1ccc(Cl)c(Cl)c1)Nc1ccc(F)c(C(=O)c2ccc3nccnc3c2)c1  KDR (VEGFR2) (Homo sapiens (Human), UniProt P35968)        70 to 89%
1  O=C(Nc1cc(F)cc(C(=O)c2ccc3nccnc3c2)c1)Nc1ccc(F)c(F)c1  KDR (VEGFR2) (Homo sapiens (Human), UniProt P35968)            < 70%
2  O=C(Nc1cccc(C(=O)c2ccc3ncc(N4CCOCC4)nc3c2)c1)c1cccc(C(F)(F)F)c1  KDR (VEGFR2) (Homo sapiens (Human), UniProt P35968)            > 89%

Now, please, on to the next molecule.
Lookup: inhibition at 1 µM / KDR (VEGFR2) (Homo sapiens (Human), UniProt P35968) / "O=C(Nc1ccc(Cl)c(C(F)(F)F)c1)Nc1cc(F)c(F)c(C(=O)c2ccc3ncc(N4CCOCC4)nc3c2)c1F"
< 70%

###

The following compounds are listed with their measured inhibition at 1 µM values.
target: KDR (VEGFR2) (Homo sapiens (Human)); experiment: Z′-LYTE kinase inhibition assay (Invitrogen), KDR; assay type: biochemical; conditions: 1 μM compound, Z′-LYTE method; read-out: % inhibition at 1 μM against KDR

>>> df
                           substance_smiles  reported_result
0  O=C(Nc1cncc(Cl)c1)Nc1ccc(F)c(C(=O)c2ccc3ncc(N4CCOCC4)nc3c2)c1        70 to 89%
1  O=C(Nc1cc(F)c(F)c(C(=O)c2ccc3ncc(N4CCOCC4)nc3c2)c1)Nc1ccc(Cl)c(C(F)(F)F)c1        70 to 89%
2  O=C(Nc1cc(F)cc(C(=O)c2ccc3ncc(N4CCOCC4)nc3c2)c1)Nc1ccc(Cl)c(F)c1            < 70%

Entry "O=C(Nc1cc(F)c(F)c(C(=O)c2ccc3ncc(N4CCOCC4)nc3c2)c1)c1ccc(Cl)c(C(F)(F)F)c1" has what inhibition at 1 µM?
> 89%

Follow-up entry: "O=C(Nc1ccc(Cl)c(F)c1)Nc1ccc(F)c(C(=O)c2ccc3ncc(N4CCOCC4)nc3c2)c1"
70 to 89%

Again, but for "O=C(Nc1cc(F)cc(C(=O)c2ccc3ncc(N4CCOCC4)nc3c2)c1)Nc1ccc(F)c(Cl)c1"
70 to 89%

Now the compound "O=C(Nc1ccc(F)c(F)c1)Nc1ccc(F)c(C(=O)c2ccc3ncc(N4CCOCC4)nc3c2)c1"
> 89%

What do we get for "O=C(Nc1cccc(Cl)c1)Nc1cccc(C(=O)c2ccc3nccnc3c2)c1" ?
70 to 89%

Moving on to the next compound: "O=C(Nc1ccc(F)c(F)c1)Nc1ccc(F)c(C(=O)c2ccc3ncc(NCCO)nc3c2)c1"
> 89%

###

test system: A375 cells; experiment: Inhibition of cancer cell growth, MTT assay, A375; assay type: cell-based; conditions: Homo sapiens, A-375, 72 h exposure
Below, each entry is listed alongside its reported IC50.

                           substance_smiles  endpoint_label  reported_result
0  O=C(Nc1cccc(C(=O)c2ccc3nccnc3c2)c1)c1ccc(Cl)c(C(F)(F)F)c1            IC50           > 5 µM

Give its IC50 value. Item: "O=C(Nc1cc(F)c(F)c(C(=O)c2ccc3ncc(N4CCOCC4)nc3c2)c1)c1ccc(Cl)c(C(F)(F)F)c1"
< 1 µM

How about this compound: "O=C(Nc1cc(F)c(F)c(C(=O)c2ccc3ncc(N4CCOCC4)nc3c2)c1)c1cccc(F)c1"
1 to 5 µM

Note, next up: "O=C(Nc1cccc(C(=O)c2ccc3nccnc3c2)c1)c1cccc(C(F)(F)F)c1"
> 5 µM

###

tested on: A375 cells; assay: Inhibition of cancer cell growth, MTT assay, A375; format: cell-based; conditions: Homo sapiens, A-375, 72 h exposure
Endpoint label: IC50

Below are worked cases with known answers.
>>> print(df.to_string())
                           substance_smiles  endpoint_label  reported_result
0  O=C(Nc1cccc(Cl)c1)Nc1ccc(F)c(C(=O)c2ccc3ncc(N4CCOCC4)nc3c2)c1            IC50        < 1000 nM
1  O=C(Nc1cc(F)c(F)c(C(=O)c2ccc3ncc(N4CCOCC4)nc3c2)c1)Nc1ccc(Cl)c(C(F)(F)F)c1            IC50        < 1000 nM
2  O=C(Nc1cc(F)cc(C(=O)c2ccc3nccnc3c2)c1)Nc1ccc(F)c(Cl)c1            IC50  1000 to 5000 nM

Value wanted: IC50 (A375 cells) of entry "O=C(Nc1cc(F)cc(Cl)c1)Nc1cc(F)cc(C(=O)c2ccc3ncc(N4CCOCC4)nc3c2)c1"
1000 to 5000 nM

###

Measured inhibition at 1 µM, listed per entry for reference.
Target: BRAF (Homo sapiens (Human))
Sequence (P15056 whole entry): as the sequence (P15056 whole entry V600E) above, with E600V counted along it
Assay: Z′-LYTE kinase inhibition assay (Invitrogen), BRAF
Type: biochemical
Details: 1 μM compound, Z′-LYTE method; read-out: % inhibition at 1 μM against BRAF
Method: Inhibitory activities Inhibitory activities of compounds against BRAF, and BRAF V600E were measured by Invitrogen using Z′-LYTE® Method as briefly described in the following. 4× Test compounds are dissolved in 1% DMSO. […] Fluorescence was read by plate reader. IC50 was calculated by plotting the concentration of compound vs the percentage of inhibition in treated wells using GraphPad Prism 5.

In [3]: df
Out[3]:
                           substance_smiles  reported_result
0  O=C(Nc1cc(F)cc(C(=O)c2ccc3ncc(N4CCOCC4)nc3c2)c1)Nc1cccc(C(F)(F)F)c1        70 to 89%
1  O=C(Nc1ccc(Cl)c(C(F)(F)F)c1)Nc1cc(F)c(F)c(C(=O)c2ccc3nccnc3c2)c1F            < 70%
2  O=C(Nc1ccc(F)c(C(=O)c2ccc3nccnc3c2)c1Cl)c1ccc(Cl)c(C(F)(F)F)c1            < 70%
3  O=C(Nc1cccc(C(=O)c2ccc3ncc(-c4cn[nH]c4)nc3c2)c1)Nc1ccc(Cl)c(C(F)(F)F)c1        70 to 89%
4  O=C(Nc1cccc(C(=O)c2ccc3ncc(N4CCOCC4)nc3c2)c1)Nc1cccc(C(F)(F)F)c1        70 to 89%

Field: next compound
Would you mind telling me what inhibition at 1 µM value was observed for "O=C(Nc1cccc(C(=O)c2ccc3ncc(-c4cccnc4)nc3c2)c1)c1ccc(C(F)(F)F)c(Cl)c1" ?
< 70%
